The values you see were collected from patent US11584741B2.

assay: Solubility studies, shake-flask method in 15 solvents; type: physicochemical; settings: organic solvent or mixture, thermodynamic from solid; 2-methyltetrahydrofuran, 20° C.; starting solid Form 1
property name: solubility at 24 h

Request: Data request, read-out solubility at 24 h, for Cc1ccc(C)c2oc(-c3nc(-c4ccc(C(=O)O)cc4)no3)cc12
Response: 5000 to 10000 µg/mL

====

test: Solubility studies, shake-flask method in 15 solvents; type: physicochemical; details: organic solvent or mixture, thermodynamic from solid; 1-propanol, 20° C.; starting solid Form 1
property name: solubility at 24 h

Request: Data request, read-out solubility at 24 h, for Cc1ccc(C)c2oc(-c3nc(-c4ccc(C(=O)O)cc4)no3)cc12 [BHBA-001]
Response: < 3000 µg/mL
